ASSAY METHOD TEXT: total protein half-life in vivo (active degradation + dilution); higher = more stable protein
CONDITION DESCRIPTION: E. coli NCM3722 delta-clpP delta-lon delta-hslV; growth: N-lim chemostat; doubling time 6 h
VALUE TYPE: total protein half-life in vivo (h)
Write the answer as a number in h, unit excluded.

MIVAFCLYKYFPFGGLQRDFMRIASTVAARGHHVRVYTQSWEGDCPKAFELIQVPVKSHTNHGRNAEYYAWVQNHLKEHPADRVVGFNKMPGLDVYFAADVCYAEKVAQEKGFLYRLTSRYRHYAAFERATFEQGKSTKLMMLTDKQIADFQKHYQTEPERFQILPPGIYPDRKYSEQIPNSREIYRQKNGIKEQQNLLLQVGSDFGRKGVDRSIEALASLPESLRHNTLLFVVGQDKPRKFEALAEKLGVRSNVHFFSGRNDVSELMAAADLLLHPAYQEAAGIVLLEAITAGLPVLTTAVCGYAHYIADANCGTVIAEPFSQEQLNEVLRKALTQSPLRMAWAENARHYADTQDLYSLPEKAADIITGGLDG ... 6.84

Okay, next one:
Q: Assign total protein half-life in vivo to the following record: MTHKATEILTGKVMQKSVLITGCSSGIGLESALELKRQGFHVLAGCRKPDDVERMNSMGFTGVLIDLDSPESVDRAADEVIALTDNCLYGIFNNAGFGMYGPLSTISRAQMEQQFSANFFGAHQLTMRLLPAMLPHGEGRIVMTSSVMGLISTPGRGAYAASKYALEAWSDALRMELRHSGIKVSLIEPGPIRTRFTDNVNQTQSDKPVENPGIAARFTLGPEAVVDKVRHAFISEKPKMRYPVTLVTWAVMVLKRLLPGRVMDKILQG [P0AFP4]
Ans: 6.09

====

ASSAY METHOD TEXT: total protein half-life in vivo (active degradation + dilution); higher = more stable protein
CONDITION DESCRIPTION: wild type E. coli NCM3722; growth: C-lim chemostat; doubling time 12 h
VALUE TYPE: total protein half-life in vivo (h)
Write the answer as a number in h, unit excluded.

MSESLHLTRNGSILEITLDRPKANAIDAKTSFEMGEVFLNFRDDPQLRVAIITGAGEKFFSAGWDLKAAAEGEAPDADFGPGGFAGLTEIFNLDKPVIAAVNGYAFGGGFELALAADFIVCADNASFALPEAKLGIVPDSGGVLRLPKILPPAIVNEMVMTGRRMGAEEALRWGIVNRVVSQAELMDNARELAQQLVNSAPLAIAALKEIYRTTSEMPVEEAYRYIRSGVLKHYPSVLHSEDAIEGPLAFAEKRDPVWKGR ... 8.84

Okay, next one:
Q: Assign total protein half-life in vivo to the following record: MRFYRPLGRISALTFDLDDTLYDNRPVILRTEREALTFVQNYHPALRSFQNEDLQRLRQAVREAEPEIYHDVTRWRFRSIEQAMLDAGLSAEEASAGAHAAMINFAKWRSRIDVPQQTHDTLKQLAKKWPLVAITNGNAQPELFGLGDYFEFVLRAGPHGRSKPFSDMYFLAAEKLNVPIGEILHVGDDLTTDVGGAIRSGMQACWIRPENGDLMQTWDSRLLPHLEISRLASLTSLI [P0ADP0]
Ans: 10.1

====

The entries below are paired with their reported total protein half-life in vivo.
ASSAY METHOD TEXT: total protein half-life in vivo (active degradation + dilution); higher = more stable protein
CONDITION DESCRIPTION: E. coli NCM3722 delta-smpB; growth: N-lim chemostat; doubling time 6 h
Write the answer as a number in h, unit excluded.

Illustrative cases are given below, each with its answer.
MPKFRVSLFSLALMLAVPFAPQAVAKTAAATTASQPEIASGSAMIVDLNTNKVIYSNHPDLVRPIASISKLMTAMVVLDARLPLDEKLKVDISQTPEMKGVYSRVRLNSEISRKDMLLLALMSSENRAAASLAHHYPGGYKAFIKAMNAKAKSLGMNNTRFVEPTGLSVHNVSTARDLTKLLIASKQYPLIGQLSTTREDMATFSNPTYTLPFRNTNHLVYRDNWNIQLTKTGFTNAAGHCLVMRTVINNKPVALVVMDAFGKYTHFADASRLRTWIETGKVMPVPAAALSYKKQKAAQMAAAGQTAQND [P0AFI5] ... 1.81
MKSLQALFGGTFDPVHYGHLKPVETLANLIGLTRVTIIPNNVPPHRPQPEANSVQRKHMLELAIADKPLFTLDERELKRNAPSYTAQTLKEWRQEQGPDVPLAFIIGQDSLLTFPTWYEYETILDNAHLIVCRRPGYPLEMAQPQYQQWLEDHLTHNPEDLHLQPAGKIYLAETPWFNISATIIRERLQNGESCEDLLPEPVLTYINQQGLYR [P0A752] ... 4.2
MSKCSADETPVCCCMDVGTIMDNSDCTASYSRVFANRAEAEQTLAALTEKARSVESEPCKITPTFTEESDGVRLDIDFTFACEAEMLIFQLGLR [P0AD33] ... 2.37
MIVTIVGWLVLFVFLPNLMIIGTSFLTRDDASFVKMVFTLDNYTRLLDPLYFEVLLHSLNMALIATLACLVLGYPFAWFLAKLPHKVRPLLLFLLIVPFWTNSLIRIYGLKIFLSTKGYLNEFLLWLGVIDTPIRIMFTPSAVIIGLVYILLPFMVMPLYSSIEKLDKPLLEAARDLGASKLQTFIRIIIPLTMPGIIAGCLLVMLPAMGLFYVSDLMGGAKNLLIGNVIKVQFLNIRDWPFGAATSITLTIVMGLMLLVYWRASRLLNKKVELE [P0AFK4] ... 5.57
MKRKVLLIPLIIFLAIAAALLWQLARNAEGDDPTNLESALIGKPVPKFRLESLDNPGQFYQADVLTQGKPVLLNVWATWCPTCRAEHQYLNQLSAQGIRVVGMNYKDDRQKAISWLKELGNPYALSLFDGDGMLGLDLGVYGAPETFLIDGNGIIRYRHAGDLNPRVWEEEIKPLWEKYSKEAAQ [P0AA86] ... 6.09

Okay, next one:
Q: Assign total protein half-life in vivo to the following record: MSSNTFTLGTKSVNRLGYGAMQLAGPGVFGPPRDRHVAITVLREALALGVNHIDTSDFYGPHVTNQIIREALYPYSDDLTIVTKIGARRGEDASWLPAFSPAELQKAVHDNLRNLGLDVLDVVNLRVMMGDGHGPAEGSIEASLTVLAEMQQQGLVKHIGLSNVTPTQVAEARKIAEIVCVQNEYNIAHRADDAMIDALAHDGIAYVPFFPLGGFTPLQSSTLSDVAASLGATPMQVALAWLLQRSPNILLIPGTSSVAHLRENMAAEKLHLSEEVLSTLDGISRE
Ans: 4.18
